Test: Drug metabolism in human intestine assessed as glucuronidation after 1 hr by Eadie-Hofstee plot analysis
Assay type: ADME, tissue-based
Measured Property: Km at 1 h (µM)
The reply should contain only the number, in µM.

Q: Need Km at 1 h of C=CC[C@@H]1/C=C(\C)C[C@H](C)C[C@H](OC)[C@H]2O[C@@](O)(C(=O)C(=O)N3CCCC[C@H]3C(=O)O[C@H](/C(C)=C/[C@@H]3CC[C@@H](O)[C@H](OC)C3)[C@H](C)[C@@H](O)CC1=O)[C@H](C)C[C@@H]2OC [TACROLIMUS ANHYDROUS] , thanks.
Result: 51.8

* * *

Tested on: UGT1A4*4
Assay: Activity of UGT1A4*4 mutant (unknown origin) overexpressed in HEK293 cells assessed as enzyme-mediated glucuronidation after 1 hr by Eadie-Hofstee plot analysis
Assay type: ADME, cell-based
Conditions: human, HEK293 cells overexpressing UGT1A4*4
Measured Property: Km at 1 h (µM)
# output: bare number, implied unit µM

Q: Any idea what Km at 1 h was measured for C=CC[C@@H]1/C=C(\C)C[C@H](C)C[C@H](OC)[C@H]2O[C@@](O)(C(=O)C(=O)N3CCCC[C@H]3C(=O)O[C@H](/C(C)=C/[C@@H]3CC[C@@H](O)[C@H](OC)C3)[C@H](C)[C@@H](O)CC1=O)[C@H](C)C[C@@H]2OC [TACROLIMUS ANHYDROUS] ?
Result: 101

The origin of these recorded values is ChEMBL document CHEMBL3526068.
